pKi: −log10 of the molar value.
Reported pKi for target or system adenosine A1 receptor (Bos taurus), by entry.
REPORTED_ENDPOINT: pKi

Some molecules with recorded pKi:
CSc1nc2c(N[C@H]3C[C@H]4CC[C@@H]3C4)ncnc2n1C (relative stereo)    8.22
CN(C)c1nc2c(N[C@H]3C[C@H]4CC[C@@H]3C4)ncnc2n1C (relative stereo)    8.43
Cn1c(N2CCSCC2)nc2c(N[C@H]3C[C@H]4CC[C@@H]3C4)ncnc21 (relative stereo)    8.10

A = Cn1c(N2CCOCC2)nc2c(NC3CCCC3)ncnc21
B = Cn1c(Br)nc2c(N[C@H]3C[C@@H]4C[C@H]3C[C@@H]4O)ncnc21 (relative stereo)
C = Cn1cnc2c(N[C@H]3C[C@H]4C[C@@H]3c3ccccc34)ncnc21 (relative stereo)
D = CN(C)c1nc2c(N[C@H]3C[C@@H]4C[C@H]3C[C@@H]4O)ncnc2n1C (relative stereo)
Sort low-to-high on pKi, please. List each label, following the requested order.
A, C, D, B

====

ASSAY_TARGET: adenosine A1 receptor (Bos taurus, UniProt P28190)
Construct: were homogenized with a Brinkman polytron and the membranes were collected by centrifugation; from tissue; host or cells: bovine caudate membranes
Sequence (P28190 whole entry): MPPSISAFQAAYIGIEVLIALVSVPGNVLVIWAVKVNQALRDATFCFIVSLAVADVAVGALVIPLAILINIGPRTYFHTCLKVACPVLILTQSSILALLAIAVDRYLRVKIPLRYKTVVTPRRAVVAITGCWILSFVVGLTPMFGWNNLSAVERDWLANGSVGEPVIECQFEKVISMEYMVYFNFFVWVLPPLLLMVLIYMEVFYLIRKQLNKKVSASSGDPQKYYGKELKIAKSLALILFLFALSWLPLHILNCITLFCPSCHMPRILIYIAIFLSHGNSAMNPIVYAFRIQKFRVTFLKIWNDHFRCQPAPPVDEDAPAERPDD
EXPERIMENT_NOTES: Receptor affinity (radioligand binding), A1, [3H]CHA
Design: species or system bovine
MEASUREMENT_PARAMETERS: radioligand binding, A2 Ki /A1 Ki
REPORTED_ENDPOINT: Selectivity Ratio (A2 Ki /A1 Ki)

Some compounds with recorded Selectivity Ratio (A2 Ki /A1 Ki):
Cn1c(N2CCCC2)nc2c(N[C@H]3C[C@H]4CC[C@@H]3C4)ncnc21 (relative stereo)    > 526
Cn1c(N2CCCCC2)nc2c(N[C@H]3C[C@H]4CC[C@@H]3C4)ncnc21 (relative stereo)    > 52
CC(C)N(C)c1nc2c(N[C@H]3C[C@@H]4C[C@H]3C[C@@H]4O)ncnc2n1C (relative stereo)    2,626

Next:
Fill blank: measured Selectivity Ratio (A2 Ki /A1 Ki) of the compound Cn1c(N2CCOCC2)nc2c(NC3CCCC3)ncnc21 is ____.
> 238

====

ASSAY_TARGET: adenosine A2 receptor
EXPERIMENT_NOTES: Receptor affinity (radioligand binding), A2, [3H]NECA
MEASUREMENT_PARAMETERS: room temperature, 1 hour
REPORTED_ENDPOINT: Ki

Some compounds with recorded Ki:
CC(C)n1cnc2c(N[C@@H]3C[C@H]4C[C@@H]3C[C@H]4O)ncnc21 (relative stereo) [Example 45]    > 10 µM
CC(C)Nc1nc2c(N[C@@H]3C[C@H]4C[C@@H]3C[C@H]4O)ncnc2n1C (relative stereo) [Example 26]    5.75 µM
Cn1cnc2c(N[C@@H]3C[C@H]4C[C@@H]3CC4=O)ncnc21 (relative stereo) [Example 29]    > 10 µM

Next:
Write down the reported Ki of Cn1cnc2c(N[C@H]3C[C@H]4C[C@@H]3[C@@H](O)C4)ncnc21 (relative stereo) [Example 32] , test system: adenosine A2 receptor.
> 10 µM

====

ASSAY_TARGET: adenosine A2 receptor
EXPERIMENT_NOTES: Receptor affinity (radioligand binding), A2, [3H]NECA
MEASUREMENT_PARAMETERS: room temperature, 1 hour
pKi: −log10 of the molar value.
REPORTED_ENDPOINT: pKi

Cn1cnc2c(N[C@H]3C[C@H]4C[C@@H]3[C@H](O)C4)ncnc21 (relative stereo) [Example 35]    4.45
Cn1c(N2CCSCC2)nc2c(N[C@H]3C[C@H]4CC[C@@H]3C4)ncnc21 (relative stereo) [Example 9]    5.00
CC(C)N(C)c1nc2c(N[C@H]3C[C@@H]4C[C@H]3C[C@@H]4O)ncnc2n1C (relative stereo) [Example 16]    6.63

I = Cn1cnc2c(N[C@H]3C[C@H]4C[C@@H]3c3ccccc34)ncnc21 (relative stereo) [Example 38]
II = Cn1c(Br)nc2c(N[C@H]3C[C@H]4CC(=O)[C@@H]3C4)ncnc21 (relative stereo) [Example 19]
Which of the two gives a bigger number for pKi: I or II ? # respond with the chosen item's label
II

Just for reference, patent US5670501A is where these values come from.
